System: Plasmodium falciparum
Test summary: In vitro antiplasmodial activity against Plasmodium falciparum Thai
The reader will find reported pIC50 values listed item by item below.
When answering, recall that pIC50 equals minus log10 of the concentration in mol/L, and write that number alone.

Check out these entries, answers already filled in.
[[record]]
structure_smiles_string = "COc1ccc(CN2CCN(C(=O)COc3ccc4c(=O)cc(-c5cc(C(C)(C)C)c(O)c(C(C)(C)C)c5)oc4c3)CC2)c(OC)c1OC"
parameter = "pIC50"
value_measured = 6.05

[[record]]
structure_smiles_string = "CCOC(=O)COc1cc(-c2cc(=O)c3c(O)cc(OCC(=O)N4CCN(Cc5ccc(O)c(OC)c5OC)CC4)cc3o2)ccc1OC"
parameter = "pIC50"
value_measured = 5.92

[[record]]
structure_smiles_string = "CCOC(=O)COc1cc(-c2cc(=O)c3c(O)cc(OCC(=O)N4CCN(Cc5ccc(OC)c(OC)c5OC)CC4)cc3o2)ccc1OC"
parameter = "pIC50"
value_measured = 4.89


--- query ---
Look at this compound and give its reported pIC50. COc1ccc(-c2cc(=O)c3c(O)cc(OCC(=O)N4CCN(Cc5ccc(OC)c(OC)c5OC)CC4)cc3o2)cc1OCC(=O)OC(C)(C)C
5.82

---

Catalogue of Ratio IC50 values
Test summary: Selectivity index, ratio of IC50 for MRC5 cells to IC50 for Plasmodium falciparum FcB1
Assay type: functional

[[record]]
structure_smiles_string = "COc1ccc(-c2cc(=O)c3c(O)cc(OCC(=O)N4CCN(Cc5ccc(OC)c(OC)c5OC)CC4)cc3o2)cc1OC1CCCC1"
parameter = "Ratio IC50"
value_measured = ">53"

[[record]]
structure_smiles_string = "CCOC(=O)COc1cc(-c2cc(=O)c3c(O)cc(OCCN4CCN(Cc5ccc(OC)c(OC)c5OC)CC4)cc3o2)ccc1OC"
parameter = "Ratio IC50"
value_measured = 4.2


// query Ratio IC50 value for entry COc1ccc(-c2cc(=O)c3c(O)cc(OCC(=O)N4CCN(Cc5ccc(OC)c(OC)c5OC)CC4)cc3o2)cc1OCC(=O)OC(C)(C)C
>82

---

System: Plasmodium falciparum
Test summary: Antiplasmodial activity against Plasmodium falciparum FcB1
Assay type: functional, organism-based
Lab note: compare IC50 with 4 µM, writing True if less and False if equal or more.

[[record]]
structure_smiles_string = "CCOC(=O)COc1cc(-c2cc(=O)c3c(O)cc(OCC(=O)N4CC[N+](C)(Cc5ccc(OC)c(OC)c5OC)CC4)cc3o2)ccc1OC"
label_value = "False"

[[record]]
structure_smiles_string = "COc1ccc(-c2cc(=O)c3c(O)cc(OCC(=O)N4CCN(Cc5ccc(OC)c(OC)c5OC)CC4)cc3o2)cc1OCC(=O)OC(C)(C)C"
label_value = "True"


Consider CCOC(=O)COc1cc(-c2cc(=O)c3c(O)cc(OCC(=O)N4CCN(Cc5ccc(OCc6ccccc6)c(OC)c5OC)CC4)cc3o2)ccc1OC . Does its IC50 lie strictly below 4 µM?
True

Param item: CCOC(=O)COc1cc(-c2cc(=O)c3c(O)cc(OCC(=O)N4CCN(Cc5ccc(OC)cc5OC)CC4)cc3o2)ccc1OC
True

// next record COc1ccc(CN2CCN(C(=O)COc3cc(O)c4c(=O)cc(-c5ccccc5)oc4c3)CC2)c(OC)c1OC
False

---

Test system: Plasmodium falciparum
Test summary: Antiplasmodial activity against Plasmodium falciparum D6
Type: functional, organism-based
log10(IC50) listing for selected compounds.
Would you kindly interpret these values as log10 of IC50 expressed in µM?

[[record]]
structure_smiles_string = "COc1ccc(-c2cc(=O)c3c(O)cc(OCC(=O)N4CCN(Cc5ccc(OC)c(OC)c5OC)CC4)cc3o2)cc1O"
parameter = "log10(IC50)"
value_measured = 0.72

[[record]]
structure_smiles_string = "CCOC(=O)COc1cc(-c2cc(=O)c3c(O)cc(OCC(=O)N4CCN(Cc5ccc(Cl)cc5)CC4)cc3o2)ccc1OC"
parameter = "log10(IC50)"
value_measured = 0.78

[[record]]
structure_smiles_string = "COc1ccc(-c2cc(=O)c3c(O)cc(OCC(=O)N4CCN(Cc5ccc(OC)c(OC)c5OC)CC4)cc3o2)cc1OCC(=O)N1CCN(Cc2ccc(OC)c(OC)c2OC)CC1"
parameter = "log10(IC50)"
value_measured = -0.74

[[record]]
structure_smiles_string = "CCOC(=O)COc1cc(-c2cc(=O)c3c(O)cc(OCC(=O)N4CCN(Cc5ccc(OC)c(OC)c5OC)CC4)cc3o2)ccc1OC"
parameter = "log10(IC50)"
value_measured = -0.30


May I ask what log10(IC50) has been recorded for CCOC(=O)COc1cc(-c2cc(=O)c3c(O)cc(OCC(=O)N4CCN(Cc5cccc(OC)c5OC)CC4)cc3o2)ccc1OC ?
0.38

Queued: CCOC(=O)COc1cc(-c2cc(=O)c3c(O)cc(OCC(=O)N4CCN(Cc5ccc(OC)c(OC)c5)CC4)cc3o2)ccc1OC
0.67

And what about the compound CCOC(=O)COc1cc(-c2cc(=O)c3c(O)cc(OCC(=O)N4CCN(Cc5cc(OC)c(OC)c(OC)c5)CC4)cc3o2)ccc1OC ?
0.60
